Item-by-item account of zone of inhibition at 100 µg/disc
system: Salmonella typhi; assay: Antibacterial activity against Salmonella typhi assessed as zone of inhibition at 100 ug/well measured after 24 hrs by agar well diffusion method; type: functional, Salmonella enterica subsp. enterica serovar Typhi; settings: Salmonella enterica, read-out: DIZ

[
  {
    "compound": "CC1(C)O[C@H]2O[C@@H]3COB(c4ccc(/C=N/c5ccc(Br)cc5)cc4)O[C@@H]3[C@H]2O1",
    "zone of inhibition at 100 µg/disc / mm": 22
  },
  {
    "compound": "CC1(C)O[C@H]2O[C@@H]3COC(c4ccc(/C=N\\c5ccc(F)cc5)cc4)O[C@@H]3[C@H]2O1 (stereo partly drawn)",
    "zone of inhibition at 100 µg/disc / mm": 0
  },
  {
    "compound": "COc1ccc(/N=C/c2cccc(B3OC[C@H]4O[C@@H]5OC(C)(C)O[C@@H]5[C@H]4O3)c2)cc1",
    "zone of inhibition at 100 µg/disc / mm": 25
  }
]

* * *

tested on: Staphylococcus aureus; assay: Antibacterial activity against Staphylococcus aureus MTCC 3160 measured after 24 hrs by NCCL protocol based broth dilution method; format: functional; conditions: MTCC 3160, 24 h

[
  {
    "smi": "CC1(C)O[C@H]2O[C@@H]3COB(c4cccc(/N=C/c5ccc(Br)cc5O)c4)O[C@@H]3[C@H]2O1",
    "targetEntity": "Staphylococcus aureus",
    "MIC (µg/mL)": 250
  },
  {
    "smi": "Cc1ccccc1B1OC[C@H]2O[C@@H]3OC(C)(C)O[C@@H]3[C@H]2O1",
    "targetEntity": "Staphylococcus aureus",
    "MIC (µg/mL)": 250
  },
  {
    "smi": "CC1(C)O[C@H]2O[C@@H]3COB(c4cccc(/N=C/c5ccc6ccccc6c5O)c4)O[C@@H]3[C@H]2O1",
    "targetEntity": "Staphylococcus aureus",
    "MIC (µg/mL)": 125
  },
  {
    "smi": "CC1(C)O[C@H]2O[C@@H]3COB(c4cccc(/C=N/c5ccc(F)cc5)c4)O[C@@H]3[C@H]2O1",
    "targetEntity": "Staphylococcus aureus",
    "MIC (µg/mL)": 31.2
  },
  {
    "smi": "COc1ccc(/N=C/c2ccc(B3OC[C@H]4O[C@@H]5OC(C)(C)O[C@@H]5[C@H]4O3)cc2)cc1",
    "targetEntity": "Staphylococcus aureus",
    "MIC (µg/mL)": 500
  },
  {
    "smi": "CC1(C)O[C@H]2O[C@@H]3COB(c4cccc(N)c4)O[C@@H]3[C@H]2O1",
    "targetEntity": "Staphylococcus aureus",
    "MIC (µg/mL)": 500
  },
  {
    "smi": "CC1(C)O[C@H]2O[C@@H]3COB(c4ccccc4C=O)O[C@@H]3[C@H]2O1",
    "targetEntity": "Staphylococcus aureus",
    "MIC (µg/mL)": 62.5
  },
  {
    "smi": "CC(C)c1ccc(/N=C/c2cccc(B3OC[C@H]4O[C@@H]5OC(C)(C)O[C@@H]5[C@H]4O3)c2)cc1",
    "targetEntity": "Staphylococcus aureus",
    "MIC (µg/mL)": 250
  },
  {
    "smi": "CC1(C)O[C@H]2O[C@@H]3COB(c4cccc(/C=N/c5ccccc5)c4)O[C@@H]3[C@H]2O1",
    "targetEntity": "Staphylococcus aureus",
    "MIC (µg/mL)": 125
  },
  {
    "smi": "CC1(C)O[C@H]2O[C@@H]3COB(c4cccc(/N=C/c5cc(Br)ccc5O)c4)O[C@@H]3[C@H]2O1",
    "targetEntity": "Staphylococcus aureus",
    "MIC (µg/mL)": 125
  },
  {
    "smi": "O=[N+]([O-])c1ccc(O)c(/C=N/c2cccc(B(O)O)c2)c1",
    "targetEntity": "Staphylococcus aureus",
    "MIC (µg/mL)": 500
  },
  {
    "smi": "CC1(C)O[C@H]2O[C@@H]3COB(c4ccc(/C=N/c5ccc(Cl)cc5)cc4)O[C@@H]3[C@H]2O1",
    "targetEntity": "Staphylococcus aureus",
    "MIC (µg/mL)": 125
  },
  {
    "smi": "CC1(C)O[C@H]2O[C@@H]3COB(c4cccc(/N=C/c5cc([N+](=O)[O-])ccc5O)c4)O[C@@H]3[C@H]2O1",
    "targetEntity": "Staphylococcus aureus",
    "MIC (µg/mL)": 31.2
  },
  {
    "smi": "CC1(C)O[C@H]2O[C@@H]3COB(c4ccccc4F)O[C@@H]3[C@H]2O1",
    "targetEntity": "Staphylococcus aureus",
    "MIC (µg/mL)": 125
  },
  {
    "smi": "COc1ccc(/N=C/c2cccc(B3OC[C@H]4O[C@@H]5OC(C)(C)O[C@@H]5[C@H]4O3)c2)cc1",
    "targetEntity": "Staphylococcus aureus",
    "MIC (µg/mL)": 500
  },
  {
    "smi": "CC(C)c1ccc(/N=C/c2ccc(B3OC[C@H]4O[C@@H]5OC(C)(C)O[C@@H]5[C@H]4O3)cc2)cc1",
    "targetEntity": "Staphylococcus aureus",
    "MIC (µg/mL)": 125
  },
  {
    "smi": "COc1ccc(/C=N/c2cccc(B3OC[C@H]4O[C@@H]5OC(C)(C)O[C@@H]5[C@H]4O3)c2)c(O)c1",
    "targetEntity": "Staphylococcus aureus",
    "MIC (µg/mL)": 125
  },
  {
    "smi": "CC1(C)O[C@H]2O[C@@H]3COB(c4ccc(C=O)cc4)O[C@@H]3[C@H]2O1",
    "targetEntity": "Staphylococcus aureus",
    "MIC (µg/mL)": 125
  },
  {
    "smi": "Cc1ccc(/N=C/c2ccc(B3OC[C@H]4O[C@@H]5OC(C)(C)O[C@@H]5[C@H]4O3)cc2)cc1",
    "targetEntity": "Staphylococcus aureus",
    "MIC (µg/mL)": 125
  },
  {
    "smi": "CC1(C)O[C@H]2O[C@@H]3COB(c4ccc(/C=N/c5ccc(F)cc5)cc4)O[C@@H]3[C@H]2O1",
    "targetEntity": "Staphylococcus aureus",
    "MIC (µg/mL)": 62.5
  },
  {
    "smi": "CCOc1cccc(/C=N/c2cccc(B3OC[C@H]4O[C@@H]5OC(C)(C)O[C@@H]5[C@H]4O3)c2)c1O",
    "targetEntity": "Staphylococcus aureus",
    "MIC (µg/mL)": 250
  }
]
